biological target: HLA-A*0202 (human); test: inhibition of 125I probe peptide binding to purified HLA, gel filtration
quantityKind: pIC50
# pIC50: negative log10 of molar concentration; output just the value

Short answer for FLTLSVTWIGV [Peptide 63.0186 (PSA.3.V11)] : pIC50 was 8.52
